Reference source: the supplement of paper PMC10219994

B1: library; a variant is named by its letters at N, in order (parent)
chain: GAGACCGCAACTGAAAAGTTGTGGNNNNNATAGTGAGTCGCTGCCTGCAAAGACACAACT

variants of: B1; experiment: ligation selection enrichment (abundance after / before one-round selection) (fold); higher = more template-directed ligation activity; settings: with T7Psub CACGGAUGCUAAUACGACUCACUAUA; MgCl2 25 mM; 42 °C; 4 h; pH 8.5

variant code | ligation selection enrichment
CAGCA | 0.206
AAGTT | 0.257
AGTAG | 1.7
TATCT | 0.379
CTAGG | 0.212
ATGAC | 1.69
TCCTA | 0.147
TGTTG | 1.1
AATTG | 1.46
TCACT | 0.427
ATGCT | 0.505
CTATG | 0.36
CGCGT | 0.237
AACTT | 0.165
TGAGC | 0.156
CCCCG | 0.49
TGACA | 0.19
GACCC | 0.238
AGGCC | 0.21
GTTCC | 0.33
CCTCG | 0.55
GCGTC | 0.231
GTCTG | 0.554
